target: furin, P09958; experiment: furin cleavage Z-score vs untreated control; higher = more cleavage, active = 3.5 or more, inactive = 1 or less, 8 variable residues between constant flanks; conditions: 15 min;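 further: purified furin at 1:10 enzyme:substrate in 50 mM HEPES pH 7.5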
Sequence (P09958 whole entry): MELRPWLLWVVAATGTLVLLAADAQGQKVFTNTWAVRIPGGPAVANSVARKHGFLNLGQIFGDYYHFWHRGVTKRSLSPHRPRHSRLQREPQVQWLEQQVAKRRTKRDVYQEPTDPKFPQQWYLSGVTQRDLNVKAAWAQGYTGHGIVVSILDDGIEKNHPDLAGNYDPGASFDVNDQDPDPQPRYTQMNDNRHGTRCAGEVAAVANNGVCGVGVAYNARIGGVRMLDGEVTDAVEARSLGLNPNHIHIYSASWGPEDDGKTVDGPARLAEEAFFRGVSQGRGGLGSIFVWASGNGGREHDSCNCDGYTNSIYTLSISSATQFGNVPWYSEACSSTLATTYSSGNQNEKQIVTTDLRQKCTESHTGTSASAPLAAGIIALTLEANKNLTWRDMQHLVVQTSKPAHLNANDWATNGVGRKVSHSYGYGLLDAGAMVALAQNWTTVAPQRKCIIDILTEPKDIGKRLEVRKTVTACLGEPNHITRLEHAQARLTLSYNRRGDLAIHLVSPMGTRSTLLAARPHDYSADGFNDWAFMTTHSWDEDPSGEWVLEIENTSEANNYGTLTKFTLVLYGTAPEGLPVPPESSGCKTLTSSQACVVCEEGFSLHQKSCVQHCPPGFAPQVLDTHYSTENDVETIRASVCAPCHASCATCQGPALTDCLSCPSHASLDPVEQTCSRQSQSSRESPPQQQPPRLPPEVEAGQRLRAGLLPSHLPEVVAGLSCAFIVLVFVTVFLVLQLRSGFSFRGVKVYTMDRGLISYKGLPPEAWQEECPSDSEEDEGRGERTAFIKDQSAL
This is one part of the list. No count for the full screen is at hand.
Labels: Yes = active, No = inactive

CASLVRNRRIAGNASASA [FS-626]: Yes
CALYNRTRRIAGNASASA [FS-61]: No
CAPLLYRLGAAGNASASA [HC972]: No
CARSQRSEERAGNASASA [FS-2813]: No
CAAVRRLVGNAGNASASA [FS-1667]: No
CAGLYHVTNDAGNASASA [HC260]: No
CAVVPRGVNLAGNASASA [TR7]: No
CAGLSRHRRIAGNASASA [FS-1329]: Yes
CAEWPCHRPSAGNASASA [HC2328]: No
CADGNRQVRGAGNASASA [FS-981]: No
CARTRRYTLFAGNASASA [FS-2191]: Yes
CAVVCPSMSYAGNASASA [HC100]: No
CAAPSRRSRSAGNASASA [FS-216]: Yes
CAASRQAEVIAGNASASA [HC1030]: No
CAWQRRQRRGAGNASASA [FS-896]: Yes
CANTPCSGSWAGNASASA [HC1841]: No
CAVVCCSMYYAGNASASA [HC2069]: No
CASSSRRSRSAGNASASA [FS-1615]: Yes
